Items are presented alongside their recorded T/P (Tumor/Plasma ratio).
- System: NCI-H460 tumor-bearing mice (lung cancer)
- assay.procedure: Biodistribution: lutetium accumulation in tumor, plasma and healthy tissues by ICP-MS
- Format: in vivo
- measurement.parameters: 24 h

mol: CCNC(=O)c1nnc(-c2cc(C(C)C)c(O)cc2O)n1-c1ccc(CC2CCN(C(=O)CCOCCOCCOCCOCCOCCOCCOCCOCCOCCOCCOCCOCCNC(=O)CN3CCN4CCN5CCN(CC3)CC(=O)[O][Lu]([O]C(=O)C4)[O]C(=O)C5)CC2)cc1
T/P (Tumor/Plasma ratio): 5.54
//
mol: CCNC(=O)c1nnc(-c2cc(C(C)C)c(O)cc2O)n1-c1ccc(CC2CCN(C(=O)CCOCCOCCOCCOCCOCCOCCOCCOCCOCCOCCOCCOCCNC(=O)[C@H](CCCCNC(=O)CCCc3ccc(I)cc3)NC(=O)CN3CCN4CCN5CCN(CC3)CC(=O)[O][Lu]([O]C(=O)C4)[O]C(=O)C5)CC2)cc1
T/P (Tumor/Plasma ratio): 0.84
//
mol: CCNC(=O)c1nnc(-c2cc(C(C)C)c(O)cc2O)n1-c1ccc(OC2CCN(C(=O)CCNC(=O)[C@@H](CCC(=O)N3CCC(Oc4ccc(-n5c(C(=O)NCC)nnc5-c5cc(C(C)C)c(O)cc5O)cc4)CC3)NC(=O)CCOCCOCCOCCOCCNC(=O)CN3CCN4CCN5CCN(CC3)CC(=O)[O][Lu]([O]C(=O)C4)[O]C(=O)C5)CC2)cc1
T/P (Tumor/Plasma ratio): 3.97
//
mol: CCNC(=O)c1nnc(-c2cc(C(C)C)c(O)cc2O)n1-c1ccc(CC2CCN(C(=O)C[C@H](NC(=O)CC[C@H](C(=O)O)N3CCN4CCN5CCN(CC3)CC(=O)[O][Lu]([O]C(=O)C5)[O]C(=O)C4)C(=O)N[C@H](C)C(=O)N3CCC(Cc4ccc(-n5c(C(=O)NCC)nnc5-c5cc(C(C)C)c(O)cc5O)cc4)CC3)CC2)cc1
T/P (Tumor/Plasma ratio): 1.13
